Where do these numbers come from? They come from patent US8956589B2.

Each entry below carries its reported melting point.
assay.endpoint: melting point

1) O=C(/C=C/c1ccc(O)c(OC(F)(F)F)c1)C(CCOCCO)C(=O)/C=C/c1ccc(O)c(OC(F)(F)F)c1
112 to 114 °C
2) COC(=O)CCC(C(=O)/C=C/c1ccc(O)c(OC(F)(F)F)c1)C(=O)/C=C/c1ccc(OC(C)=O)c(OC(F)(F)F)c1 (stereo not shown)
124 to 126 °C
3) COC(=O)CCC(C(=O)/C=C/c1ccc(O)c(C(F)(F)F)c1)C(=O)/C=C/c1ccc(O)c(C(F)(F)F)c1
183 °C
4) CCOC(=O)CCC(C(=O)/C=C/c1ccc(O)c(OC(F)(F)F)c1)C(=O)/C=C/c1ccc(O)c(OC(F)(F)F)c1
155 to 156 °C

---

assay.endpoint: melting point

1. CC(C(=O)/C=C/c1ccc(O)c(OC(F)(F)F)c1)C(=O)/C=C/c1ccc(O)c(OC(F)(F)F)c1
178 to 179 °C
2. COc1ccc(/C=C/C(=O)C(CCC(=O)O)C(=O)/C=C/c2ccc(OC)c(F)c2)cc1F
171 to 172 °C
3. CC(C)(C)OC(=O)CCC(C(=O)/C=C/c1ccc(O)c(OC(F)(F)F)c1)C(=O)/C=C/c1ccc(O)c(OC(F)(F)F)c1
175 °C
4. COc1ccc(/C=C/C(=O)C(CCC(=O)[O-])C(=O)/C=C/c2ccc(OC)c(F)c2)cc1F.[Na+]
> 200 °C
5. COC(=O)CCC(C(=O)/C=C/c1ccc(O)c(OC(F)(F)F)c1)C(=O)/C=C/c1ccco1 (stereo not shown)
141 °C
6. CCOC(=O)C(C(=O)/C=C/c1ccc(O)c(OC(F)(F)F)c1)C(=O)/C=C/c1ccc(O)c(OC(F)(F)F)c1
179 to 180 °C
7. COC(=O)CCC(C(=O)/C=C/c1ccc(OC)c(F)c1)C(=O)/C=C/c1ccc(OC)c(F)c1
170 to 171 °C

---

# assay.system: amyloid β peptide aggregates (1-40) (Homo sapiens (Human))
# Sequence (P05067 672-711): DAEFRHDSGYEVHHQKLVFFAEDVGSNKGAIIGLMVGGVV
# condition.parameters: aggregates 1 μM, thioflavin-T 3 μM, compound 0.02 to 20 μM, 30 minutes at 23° C., pH 7.4; read-out: Amyloid binding property (IC50)
Reported IC50 values follow for various compounds
assay.endpoint: IC50

1) CC(C)(C(=O)/C=C/c1ccc(O)c(OC(F)(F)F)c1)C(=O)/C=C/c1ccc(O)c(OC(F)(F)F)c1 [Compound 24, reference compound]
> 15000 nM
2) COC(=O)CCC(C(=O)/C=C/c1ccc(O)c(OC(F)(F)F)c1)C(=O)/C=C/c1ccco1 (stereo not shown)
650 nM
3) COC(=O)CCC(C(=O)/C=C/c1ccc(O)c(C(F)(F)F)c1)C(=O)/C=C/c1ccc(O)c(C(F)(F)F)c1
360 nM
4) O=C(O)CCC(C(=O)/C=C/c1ccc(O)c(OC(F)(F)F)c1)C(=O)/C=C/c1ccc(O)c(OC(F)(F)F)c1
1300 nM
5) COC(=O)CC(C(=O)/C=C/c1ccc(O)c(OC(F)(F)F)c1)C(=O)/C=C/c1ccc(O)c(OC(F)(F)F)c1
520 nM
6) O=C(/C=C/c1ccc(O)c(OC(F)(F)F)c1)C(CCOCCO)C(=O)/C=C/c1ccc(O)c(OC(F)(F)F)c1
700 nM
7) COC(=O)CCCC(C(=O)/C=C/c1ccc(O)c(OC(F)(F)F)c1)C(=O)/C=C/c1ccc(O)c(OC(F)(F)F)c1
310 nM
